System: OVCAR-5 ovarian
Method Notes: NCI tumour cell line growth inhibition, 48 h
Property Measured: TGI

Some entries whose results are on file:
[
  {
    "Compound": "CCCCc1ccc(-n2c3nc(=O)n(C)c(=O)c-3nc3ccccc32)cc1",
    "TGI": "32 µM"
  },
  {
    "Compound": "NNc1nc2ccccc2s1",
    "TGI": "> 100 µM"
  },
  {
    "Compound": "COc1ccc2c(c1)OC1=C(C(=O)OC1)C2c1cc(OC)c(OC)c(OC)c1 (stereo not given)",
    "TGI": "> 100 µM"
  },
  {
    "Compound": "O=C1CCC2CCC1C2 (stereo not given)",
    "TGI": "> 100 µM"
  },
  {
    "Compound": "O=c1c2cccnc2cc(-c2ccccc2)n1CCO",
    "TGI": "> 100 µM"
  },
  {
    "Compound": "O=S(=O)(c1ccc(N=C2NN=C(c3c[nH]c4ccccc34)CS2)cc1)N1CCOCC1",
    "TGI": "> 100 µM"
  },
  {
    "Compound": "O=C(C[n+]1ccccc1)N=N/C(C(=O)Nc1c(Cl)c(O)c2ccccc2c1O)=C1/C(=O)Oc2cc(O)ccc2C1=O",
    "TGI": "25.5 µM"
  },
  {
    "Compound": "O=C1c2ccccc2-c2ccc(N=Nc3c(O)ccc4ccccc34)cc21",
    "TGI": "> 100 µM"
  },
  {
    "Compound": "C=C[C@H]1CCC/C=C/[C@@H]2C[C@H](O)C[C@H]2[C@H](O)/C=C/C(=O)O1",
    "TGI": "> 100 µM"
  },
  {
    "Compound": "CCN(CC)CCNC(=O)c1nn(C)c(=S)[nH]c1=S",
    "TGI": "> 100 µM"
  }
]

So for CCC(=O)NC(Nc1ccc(O)cc1)(C(F)(F)F)C(F)(F)F , the logged TGI turned out to be > 100 µM

Per the records, this compound ( CCOc1ccc(Nc2nc(-c3ccc4c(c3)NC(=O)CO4)cs2)cc1 ) has TGI equal to > 100 µM

Reported TGI of O=C1C(=O)c2ccccc2C(O)=C1CN(CCCl)CCCl : > 100 µM

----------
Test system: M14 melanoma
Method Notes: NCI tumour cell line growth inhibition, 48 h
Readings of TGI for the listed compounds
Could you give me the number in µM? Just the number is fine.

# annotated cases, reported TGI shown
[
  {
    "Compound": "Cc1occc1C(=S)Nc1ccc(Cl)c(/C=N/OC(C)C)c1",
    "Target Desc": "M14 melanoma",
    "Result Value": 57.9
  },
  {
    "Compound": "CCOc1ccc(Nc2nc(-c3ccc4c(c3)NC(=O)CO4)cs2)cc1",
    "Target Desc": "M14 melanoma",
    "Result Value": 17.4
  }
]

Entry C[C@H]1C[C@H](C)c2ccccc2N(C)C1=Nc1ccccc1 ; TGI = 56.2

# compound CCCCCCCCC/C=C1\CC(CO)(COC(=O)C2CCCCC2)OC1=O (stereo unspecified) ; its TGI = 55.9

// TGI value for O=C(N/N=C/c1ccccc1Cl)c1ccccc1Nc1ccnc(C(F)(F)F)c1 : 7.19

----------
Test system: DU-145 prostate
Method Notes: NCI tumour cell line growth inhibition, 48 h
Reported TGI values for a set of compounds

As a guide, the following entries are already answered.
[
  {
    "Compound": "N#Cc1sc2c(c1OC(=O)c1cccs1)c(=O)n(-c1ccccc1)c(=S)n2-c1ccccc1",
    "Target Desc": "DU-145 prostate",
    "Result Value": "> 100 µM"
  },
  {
    "Compound": "CCN(CC)C(=S)SNCc1ccc(S(N)(=O)=O)cc1",
    "Target Desc": "DU-145 prostate",
    "Result Value": "33.4 µM"
  },
  {
    "Compound": "CCCCC(=O)NC1(c2cc3ccccc3s2)CCCCC1",
    "Target Desc": "DU-145 prostate",
    "Result Value": "> 100 µM"
  },
  {
    "Compound": "NNc1nc2ccccc2s1",
    "Target Desc": "DU-145 prostate",
    "Result Value": "> 100 µM"
  },
  {
    "Compound": "N#Cc1c(Cl)c2ccccc2n2c1nc1ccccc12",
    "Target Desc": "DU-145 prostate",
    "Result Value": "80.4 µM"
  }
]

// sample O=C1NC(=S)NC(=O)C1=Cc1cccc2cc3ccccc3cc12 , its TGI was 3.63 µM

Notebook: CC1(C)CC(n2cnc(-c3ccc(F)cc3)c2-c2ccnc(N)n2)CC(C)(C)N1 , TGI read as > 25 µM

In plain terms, COc1c(Cl)c2c(c(OC)c1OC)-c1ccc(SC)c(=O)cc1[C@@H](NC(=O)OCC(F)(F)F)CC2 has a documented TGI of 0.871 µM

Notebook: O=c1[nH]nc(Cc2ccccc2)n1/N=C/c1ccccc1Cl , TGI read as > 100 µM

The recorded TGI for entry O=c1oc2ccccc2c(O)c1C(c1ccc(/C=C/c2ccccc2)cc1)c1c(O)c2ccccc2oc1=O equals > 100 µM

Noted for Cc1cccc(Cl)c1NC(=O)/C=C/c1ccccc1 : its TGI reads > 100 µM
